# experimental target: Mannose-6-phosphate isomerase (Homo sapiens) (UniProt P34949)
# Sequence (P34949 whole entry, looked up): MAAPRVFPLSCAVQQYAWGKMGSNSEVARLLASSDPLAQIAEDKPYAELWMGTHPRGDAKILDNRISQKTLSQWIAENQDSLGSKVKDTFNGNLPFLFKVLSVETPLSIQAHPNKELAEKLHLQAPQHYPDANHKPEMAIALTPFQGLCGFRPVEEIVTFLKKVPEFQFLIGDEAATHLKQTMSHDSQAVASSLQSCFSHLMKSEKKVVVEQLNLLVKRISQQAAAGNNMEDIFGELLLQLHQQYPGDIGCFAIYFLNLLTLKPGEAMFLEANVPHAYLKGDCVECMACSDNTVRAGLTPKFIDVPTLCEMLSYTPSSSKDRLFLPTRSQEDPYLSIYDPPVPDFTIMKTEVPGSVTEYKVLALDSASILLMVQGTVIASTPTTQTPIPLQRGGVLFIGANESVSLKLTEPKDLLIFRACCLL
# method: MPI inhibition at elevated mannose 6-phosphate – biochemical, fluorescence intensity, high mannose 6-phosphate, primary screen (AID 1220)
# settings: recombinant PMI enzyme, coupled fluorescence intensity; at 20 µM; active compounds read high
The whole screen tested about 190,000 compounds, of which about 1,300 (0.68%) were called active. The full list was thinned out, with actives kept by preference.
# inhibition listing for each entry below
Give a bare numeral; the unit % is implied.

>>> reported("CC(=O)c1cccc(N/C=C\\C(=O)c2ccc(C)cc2)c1")
1.9
>>> reported("O=S(=O)(c1ccc(NC(=S)Nc2ccc3c(c2)OCO3)cc1)N1CCOCC1")
52.2
>>> reported("COCCNC(=O)Cn1c(=O)n(CCCCCC(=O)NCc2ccc3c(c2)OCO3)c(=O)c2sccc21")
-13.4
>>> reported("O=C1c2ccccc2C(Nc2ccc3c(c2)OCO3)N1Cc1ccc2c(c1)OCO2 (stereo not given)")
23.7

Endpoint output: inhibition of `O=C(NCCc1ccccc1)c1ccccc1F` . Value?
8.3
